system tested: human TLR9 (Homo sapiens)
Construct: host or cells: HEK-Blue cells (HEK293-derived reporter line)
measurement protocol: TLR9 inhibition reporter assay (HEK-Blue cells, secreted embryonic alkaline phosphatase reporter)
Format: cell-based
stated conditions: HEK-Blue cells overexpressing human TLR9, stimulated with ODN2006 5 nM; read-out: TLR 9 IC50
observed property: IC50 (nM)

compound=Cc1cc(-c2ccc(CN3CCC(N(C)C4CC4)CC3)cc2)cc2c1nc(-c1ccc(S(C)(=O)=O)cc1)n2C unit_spec=nM numeric_value=334

I = Cc1cc(-c2ccc(CCN3CCC(C)(O)CC3)cc2)cc2c1nc(-c1ccc(S(C)(=O)=O)cc1)n2C
II = Cn1c(-c2ccc(S(C)(=O)=O)cc2)nc2cc(C3CCN(C4CCN(C5CCOCC5)CC4)CC3)cc(F)c21
III = CC(C)CN1C2CCC1CC(N1CCC(c3ccc4nc(-c5ccc(S(C)(=O)=O)cc5)[nH]c4c3F)CC1)C2 (single isomer, unassigned) [Example 219]
Please order the records by their reported IC50, lowest number first. The reply should contain the labels ordered as requested.
III, II, I
(III: 65 nM, II: 110 nM, I: 446 nM)

----------
system tested: human TLR9 (Homo sapiens)
Construct: host or cells: HEK-Blue cells (HEK293-derived reporter line)
measurement protocol: TLR9 inhibition reporter assay (HEK-Blue cells, secreted embryonic alkaline phosphatase reporter)
Format: cell-based
stated conditions: HEK-Blue cells overexpressing human TLR9, stimulated with ODN2006 5 nM; read-out: TLR 9 IC50
pIC50: −log10 of the molar value.
observed property: pIC50

molecule="Cn1c(-c2ccc(S(C)(=O)=O)cc2)nc2c(F)c(C3CCN(C4CC5CCC(C4)N5CC4CC4)CC3)ccc21 (single isomer, unassigned) [Example 192]" numeric_value=6.73

1 = Cc1cc(C2CCN(C3CCN(CC(C)C)CC3)CC2)cc2[nH]c(-c3ccc(OC(F)F)c(F)c3)nc12 [Example 69, tris(2,2,2-trifluoroacetate)]
2 = Cn1c(-c2ccc(S(C)(=O)=O)cc2)nc2cc(F)c(C3CCN(C4CC5CCC(C4)N5C4COC4)CC3)cc21 (single isomer, unassigned) [Example 234]
Which of the two gives a bigger number for pIC50: 1 or 2 ? Please reply using the label of the selected record.
2

a = Cc1cc(C2CCN(C3CC4CCC(C3)N4CC(C)C)CC2)cc2c1nc(-c1ccc(S(C)(=O)=O)cc1)n2C (stereo not drawn)
b = COc1ccc(-c2nc3cc(C4CCN(C5CCN(C6CC6)CC5)CC4)ccc3n2CC(F)F)cc1OC
Kindly identify which of a and b has the larger recorded pIC50 value. State the label of the item chosen.
a

----------
system tested: human TLR9 (Homo sapiens, UniProt Q9NR96)
Construct: host or cells: HEK-Blue cells (HEK293-derived reporter line)
Sequence (Q9NR96 26-1032): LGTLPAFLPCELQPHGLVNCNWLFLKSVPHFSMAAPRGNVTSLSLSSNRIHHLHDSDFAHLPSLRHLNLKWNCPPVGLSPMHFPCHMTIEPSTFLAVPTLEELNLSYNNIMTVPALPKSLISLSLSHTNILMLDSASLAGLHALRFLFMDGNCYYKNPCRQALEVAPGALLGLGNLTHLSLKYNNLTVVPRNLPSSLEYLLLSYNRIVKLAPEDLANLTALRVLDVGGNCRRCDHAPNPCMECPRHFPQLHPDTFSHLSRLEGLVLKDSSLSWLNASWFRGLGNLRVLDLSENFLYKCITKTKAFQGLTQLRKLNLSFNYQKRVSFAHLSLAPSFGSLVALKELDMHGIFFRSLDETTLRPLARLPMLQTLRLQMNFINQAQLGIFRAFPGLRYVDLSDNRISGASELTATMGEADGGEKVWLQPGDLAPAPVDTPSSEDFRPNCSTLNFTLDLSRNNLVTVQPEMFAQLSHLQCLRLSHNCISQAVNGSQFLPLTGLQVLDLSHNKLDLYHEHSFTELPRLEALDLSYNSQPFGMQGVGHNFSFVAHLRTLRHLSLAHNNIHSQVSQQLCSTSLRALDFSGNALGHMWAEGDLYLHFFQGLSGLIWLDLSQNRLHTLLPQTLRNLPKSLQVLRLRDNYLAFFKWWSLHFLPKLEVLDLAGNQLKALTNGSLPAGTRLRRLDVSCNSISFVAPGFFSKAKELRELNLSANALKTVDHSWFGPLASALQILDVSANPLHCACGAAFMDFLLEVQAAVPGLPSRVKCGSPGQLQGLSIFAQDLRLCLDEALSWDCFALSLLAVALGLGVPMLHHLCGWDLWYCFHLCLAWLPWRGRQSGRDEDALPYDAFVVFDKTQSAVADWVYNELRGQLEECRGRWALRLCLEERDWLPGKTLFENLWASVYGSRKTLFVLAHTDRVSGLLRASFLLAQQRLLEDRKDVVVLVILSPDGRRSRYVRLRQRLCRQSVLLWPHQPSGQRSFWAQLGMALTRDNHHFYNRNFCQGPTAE
measurement protocol: TLR9 inhibition reporter assay (HEK-Blue cells, secreted embryonic alkaline phosphatase reporter)
Format: cell-based
stated conditions: HEK-Blue cells overexpressing human TLR9, stimulated with ODN2006 5 nM; read-out: TLR 9 IC50
Source text: TLR7/8/9 Inhibition Reporter Assays HEK-Blue™-cells (Invivogen) overexpressing human TLR7, TLR8 or TLR9 receptors were used for screening inhibitors of these receptors using an inducible SLAP (secreted embryonic alkaline phosphatase) reporter gene under the control of the […] minimal promoter fused to five NF-κB and AP-1-binding sites. […]
observed property: IC50 (nM)

molecule=Cn1c(-c2ccc(S(C)(=O)=O)cc2)nc2c(F)cc(C3CCN(C4CCN(C5CCOCC5)CC4)CC3)cc21 numeric_value=73
molecule=Cn1c(-c2ccc(S(C)(=O)=O)cc2)nc2ccc(C3CCN(C4CCN(C5CC5)CC4)CC3)c(F)c21 numeric_value=660

A = Cn1c(-c2ccc(S(C)(=O)=O)cc2)nc2c(F)cc(C3CCN(C4CC5CCC(C4)N5C4COC4)CC3)cc21 (stereo not shown) [Example 287]
B = COc1ccc(-c2nc3cc(C4CCN(C5CCN(C6CC6)CC5)CC4)ccc3n2C(C)C)cc1OC
C = COCCN1C2CCC1CC(N1CCC(c3cc(F)c4nc(-c5ccc(S(C)(=O)=O)cc5)n(C)c4c3)CC1)C2 (single isomer, unassigned) [Example 291]
Ascending by IC50, please: list the molecules accordingly. // ordering of labels required in reply
C, A, B
(C: 57 nM, A: 104 nM, B: 388 nM)

a = Cn1c(-c2ccc(S(C)(=O)=O)cc2)nc2cc(C3CCN(C4CC5CCC(C4)N5C4COC4)CC3)cc(F)c21 (single isomer, unassigned) [Example 213]
b = CC(C)CN1CCC(N2CCC(c3cc4nc(-c5ccc(S(C)(=O)=O)cc5)n(C)c4cc3F)CC2)CC1
I would appreciate it if you could say which entry, a or b , has the lower IC50 value. Returns: label corresponding to the selected item.
b
(b: 121 nM, a: 335 nM)

Ref: patent US12492188B2
